- Tested on: PRKR;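 note: KINOMEscan kinase panel screen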
- Construct: gene EIF2AK2
- measurementParameters: concentration: 1 μM, replicates: in singlicate; n = 1
Exercise: state measured %Inh for each of the compounds provided.
Output spec: scalar in %, unitless text.

What value of %Inh has been recorded for this entry: O=C(Nc1n[nH]c2nc(-c3nccs3)c(Br)cc12)C1CCCC1
5

What value of %Inh has been recorded for this entry: C[C@@H]1CCCCN1c1cc(-c2ccc3c(N)n[nH]c3c2)nc(N)n1
21

What value of %Inh has been recorded for this entry: COc1ccc2nc(-c3cccc(C)n3)nc(Nc3ccncc3)c2c1
0

What value of %Inh has been recorded for this entry: COc1cc(Nc2nccc(N3CCC(NC(=O)Nc4cc(C)ccc4C)C3)n2)cc(OC)c1OC (stereo not drawn)
0

What value of %Inh has been recorded for this entry: O=S(=O)(c1ccc(-c2ccnc3[nH]ccc23)cc1)N1CCCC1
21

What value of %Inh has been recorded for this entry: Cc1cccc(-c2nc(C)cc(Nc3ccncc3)n2)n1
0

What value of %Inh has been recorded for this entry: COc1ccc(Nc2nccc(-c3cccc(NC(=O)c4cc5cc(F)ccc5[nH]4)c3)n2)cc1
10

What value of %Inh has been recorded for this entry: CCn1c(-c2ccccn2)nc2cnccc21
0

What value of %Inh has been recorded for this entry: Cn1ccc2ncnc(Oc3ccc(Nc4nc5ccccc5[nH]4)cc3)c21
0

What value of %Inh has been recorded for this entry: Cc1ccc(-c2cc(-c3c[nH]nc3-c3ccccn3)ccn2)cc1
24

What value of %Inh has been recorded for this entry: CN1C(=O)C(Nc2ccc(Cl)c(C(=O)O)c2)=C(c2ccc(Cl)cc2)C1=O
0

What value of %Inh has been recorded for this entry: Nc1nc(-c2nccs2)c(-c2ccnc3ccccc23)s1
0

What value of %Inh has been recorded for this entry: Cc1c(Cn2ccn3c(=O)cc(N4CCOCC4)nc23)cccc1C(F)(F)F
4

What value of %Inh has been recorded for this entry: Cc1cccc(-c2nc(Nc3cccc(C(N)=O)c3)c3ccccc3n2)n1
6

What value of %Inh has been recorded for this entry: O=C(Nc1n[nH]c2nc(-c3nccs3)c(Br)cc12)C1CC1
0

What value of %Inh has been recorded for this entry: Cc1ccc(C(=O)Nc2ccc(Nc3ccnc4cc(-c5ccccn5)ccc34)cc2O)cc1.Cl
0

What value of %Inh has been recorded for this entry: COc1cccc(NC(=O)NC2CCN(c3ccnc(Nc4ccc(F)cc4)n3)C2)c1 (stereo not drawn)
1

What value of %Inh has been recorded for this entry: Cn1cncc1-c1ccc2ncnc(Nc3ccc(OCc4ccccc4)cc3)c2c1
0

What value of %Inh has been recorded for this entry: Cc1cc(NCC(c2ccccc2)c2ccccc2)nc(NCc2ccc(C(F)(F)F)cc2)n1
0

What value of %Inh has been recorded for this entry: COC(=O)c1c(-c2ccccc2)c2cc(OC)ccc2c(=O)n1Cc1ccccc1
4

What value of %Inh has been recorded for this entry: CCn1c(-c2cccnc2O)nc2cnccc21
0

What value of %Inh has been recorded for this entry: CS(=O)(=O)c1ccc(-c2c(-c3ncn[nH]3)sc(N3CCOCC3)c2C#N)cc1
0

What value of %Inh has been recorded for this entry: Cc1cccc(-c2nc(Nc3ccncc3)c3ccccc3n2)n1
2

What value of %Inh has been recorded for this entry: Cl.NC(=O)c1cccc(Nc2nccc(Nc3ccc(Oc4cccc(Cl)c4)c(Cl)c3)n2)c1
0

What value of %Inh has been recorded for this entry: Cl.c1ccc(-c2n[nH]cc2-c2ccnc(-c3ccc(CN4CCOCC4)cc3)c2)nc1
0

What value of %Inh has been recorded for this entry: COc1ccc(C2=C(Nc3cccc(C(=O)O)c3)C(=O)NC2=O)cc1
11

What value of %Inh has been recorded for this entry: O=c1cc(N2CCOCC2)nc2n(Cc3cccc(Cl)c3Cl)ccn12
0

Entry source: paper PMC5540273
